Test system: Providencia stuartii
Assay: Antimicrobial activity against Providencia stuartii 6858 strain expressing beta-lactamase VIM-19 by microdilution method
Type: functional

structure	MIC
CC(=O)OCC1=C(C(=O)O)N2C(=O)[C@@H](NC(=O)Cc3cccs3)[C@H]2SC1	> 2050 µg/mL
CC1(C)S[C@@H]2[C@H](NC(=O)[C@H](N)c3ccc(O)cc3)C(=O)N2[C@H]1C(=O)O	> 2050 µg/mL
CC1(C)S[C@@H]2[C@H](NC(=O)[C@H](C(=O)O)c3ccsc3)C(=O)N2[C@H]1C(=O)O	> 2050 µg/mL

###

System: Klebsiella pneumoniae
Experiment: Antimicrobial activity against Klebsiella pneumoniae 2878 strain expressing beta-lactamase VIM-19 by microdilution method
Assay type: functional
Listed below: MIC values for each entry.

structure	target.desc	MIC
CC1(C)S[C@@H]2[C@H](NC(=O)[C@H](C(=O)O)c3ccsc3)C(=O)N2[C@H]1C(=O)O	Klebsiella pneumoniae	> 2050 µg/mL
CC(=O)OCC1=C(C(=O)O)N2C(=O)[C@@H](NC(=O)Cc3cccs3)[C@H]2SC1	Klebsiella pneumoniae	> 2050 µg/mL
CC1(C)S[C@@H]2[C@H](NC(=O)[C@H](N)c3ccc(O)cc3)C(=O)N2[C@H]1C(=O)O	Klebsiella pneumoniae	> 2050 µg/mL
